- Study target: Guanine nucleotide-binding protein G(i) subunit alpha-1 (Homo sapiens)
- Assay overview: qHTS Assay for Inhibitors of RGS12 GoLoco Motif Activity (Red Fluorophore); also: nearly all actives have a fitted effect of over 30% in size
- Assay setup: Gai1:RGS12 GoLoco peptide FP, rhodamine, 10 min; series mostly up to 61.6 µM
Among all 230,000 compounds or so, about 1,000 (0.43%) were called active. Calls follow the shape of the dose curve; as a rule, active = well fitted inhibition curve with a large enough effect (not every such curve was filed as active); inactive = no such curve, though single readings can be large or run the other way. The list comes from a sample in which actives are over-represented; it also holds close analogues and randomly drawn compounds.
Parameter call: string, one of label 1 = active, label 0 = inactive

For orientation, consider the following solved cases.
Compound: COC(C(=O)Nc1ccc(S(=O)(=O)Nc2ccc(C)c(C)c2)cc1)c1ccccc1 (centres undefined)
Class label: label 0

Compound: C=C(C(C)=O)C(O)c1ccc([N+](=O)[O-])cc1 (centres undefined)
Class label: label 0

Compound: O=C1CC(c2ccccc2)=NN1c1ccc([N+](=O)[O-])cc1
Class label: label 0

Compound: CCOC(=O)C1(CC2CCCCO2)CCN(Cc2nc(-c3cccs3)oc2C)CC1 (centres undefined)
Class label: label 0

Compound: OC[C@H]1O[C@@H](n2cnc3c(NC4CCCC4)ncnc32)[C@H](O)[C@H]1O
Class label: label 0

Compound: Cc1ccccc1Cn1c2ccccc2c2cnn(CC(=O)NCc3ccco3)c(=O)c21
Class label: label 0

Compound: CCCCOC(=O)Cn1c(=O)n(CC(=O)OCCCC)c2cc(C)ccc21
Class label: label 0

Compound: O=C(NCc1ccco1)O[C@@H]1C(=O)c2cc(Br)ccc2O[C@H]1c1ccc2c(c1)OCO2
Class label: label 0

Fill in: this test's call for O=[N+]([O-])c1cc(S(=O)(=O)CCCN2CCOCC2)ccc1F is ___
label 0

What do we get for CC(C)=CCN1CCC2(CCc3ccccc32)CC1 ?
label 0

Try this compound next: N#Cc1ccsc1NC(=O)CN1CCN(S(=O)(=O)c2cc(Cl)ccc2Cl)CC1
label 0

Consider next the compound Cc1cc(C(=O)NNC(=S)Nc2ccccc2C)cs1 in the same way.
label 0

Consider next the compound C=C1O[C@@](CO)(n2cnc3c(N)ncnc32)[C@H](O)[C@@H]1O in the same way.
label 0

Moving on to Cc1ccc(C(=O)N/C(=C/c2ccco2)C(=O)NCCc2c[nH]c3ccccc23)cc1C
label 0

Try this compound too: Cc1cc2nc3c(=O)[nH]c(=O)nc-3n(C[C@H](O)[C@H](O)[C@H](O)CO)c2cc1C
label 1

Next compound: O=C(c1ccc(F)cc1)N1CCCC(c2nc(-c3cccs3)no2)C1 (centres undefined)
label 0

Another compound to check: NC(=O)c1nsc(C(=O)N(CC(=O)NCc2ccc(F)cc2)Cc2ccco2)c1N
label 0

Could you do the same for Cc1cccc(Br)c1 , please?
label 0

Same question, COCCNC(=O)/C(C#N)=C/c1nc(N(C)C)n(-c2ccc(F)cc2)c1Cl this time
label 0

Next compound up: CCOC(=O)c1cnc(SC)nc1Sc1ccc(Cl)cc1Cl
label 0

What about COC(=O)/C=C\C(=O)Nc1cccc([N+](=O)[O-])c1 ?
label 1

Same read-out for CC1(C)C=CC(=O)[C@]2(C)C1CC(=O)[C@]1(C)C2CC[C@@]2(C)C(c3ccoc3)OC(=O)C3OC321 (some centres undefined) ?
label 0

How about CC(=O)Nc1cccc([N+](=O)[O-])c1 ?
label 0

Cool, now CC(=O)/C(C)=N/O
label 0

* * *

- Study target: Guanine nucleotide-binding protein G(i) subunit alpha-1 (Homo sapiens) (UniProt P63096)
- Sequence (P63096 whole entry, looked up): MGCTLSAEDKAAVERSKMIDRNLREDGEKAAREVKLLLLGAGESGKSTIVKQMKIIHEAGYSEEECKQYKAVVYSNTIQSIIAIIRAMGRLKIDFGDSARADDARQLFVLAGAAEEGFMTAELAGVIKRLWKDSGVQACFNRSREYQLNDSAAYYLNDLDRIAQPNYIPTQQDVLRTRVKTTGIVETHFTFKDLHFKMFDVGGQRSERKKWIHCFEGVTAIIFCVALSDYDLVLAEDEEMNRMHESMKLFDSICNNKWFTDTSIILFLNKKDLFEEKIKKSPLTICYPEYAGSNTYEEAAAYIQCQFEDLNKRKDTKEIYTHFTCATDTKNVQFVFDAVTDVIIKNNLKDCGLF
- Assay overview: qHTS Assay for Inhibitors of RGS12 GoLoco Motif Activity (Red Fluorophore); also: nearly all actives have a fitted effect of over 30% in size
- Assay setup: Gai1:RGS12 GoLoco peptide FP, rhodamine, 10 min; series mostly up to 61.6 µM
Hit rate of the full screen: of about 230,000 compounds, about 1,000 (0.43%) were called active. Calls follow the shape of the dose curve; as a rule, active = well fitted inhibition curve with a large enough effect (not every such curve was filed as active); inactive = no such curve, though single readings can be large or run the other way. The list comes from a sample in which actives are over-represented; it also holds close analogues and randomly drawn compounds.
Can you answer with just one of these options? 1.0 (active), 0.0 (inactive)

Compound: COc1cc(/C=N/NC(=S)Nc2cccnc2)cc(OC)c1O
Study target: Guanine nucleotide-binding protein G(i) subunit alpha-1 (Homo sapiens) (UniProt P63096)
Class label: 0.0
--
Compound: CC(=O)c1ccc(OCCN2CCOCC2)cc1
Study target: Guanine nucleotide-binding protein G(i) subunit alpha-1 (Homo sapiens) (UniProt P63096)
Class label: 0.0
--
Compound: COCCOC(=O)c1sc(=S)n(CCOC)c1N
Study target: Guanine nucleotide-binding protein G(i) subunit alpha-1 (Homo sapiens) (UniProt P63096)
Class label: 1.0
--
Compound: N=C1C(c2nc3ccccc3s2)=C(O)CN1NC(=O)c1ccc([N+](=O)[O-])cc1
Study target: Guanine nucleotide-binding protein G(i) subunit alpha-1 (Homo sapiens) (UniProt P63096)
Class label: 0.0
--
Compound: CC(Oc1ccc(-c2ccccc2)c(F)c1)c1ccn(S(=O)(=O)c2cccc3ccccc23)n1 (centres undefined)
Study target: Guanine nucleotide-binding protein G(i) subunit alpha-1 (Homo sapiens) (UniProt P63096)
Class label: 0.0

# evaluate next
What did this assay record as the result for CN(c1ccccc1)S(=O)(=O)c1cc(C(=O)Nc2nc3ccccc3[nH]2)ccc1Cl ?
0.0

* * *

- Study target: Guanine nucleotide-binding protein G(i) subunit alpha-1 (Homo sapiens) (UniProt P63096)
- Assay overview: qHTS Assay for Inhibitors of RGS12 GoLoco Motif Activity (Red Fluorophore); also: nearly all actives have a fitted effect of over 30% in size
- Assay setup: Gai1:RGS12 GoLoco peptide FP, rhodamine, 10 min; series mostly up to 61.6 µM
About 1,000 (0.43%) of roughly 230,000 compounds were called active. Calls follow the shape of the dose curve; as a rule, active = well fitted inhibition curve with a large enough effect (not every such curve was filed as active); inactive = no such curve, though single readings can be large or run the other way. The list comes from a sample in which actives are over-represented; it also holds close analogues and randomly drawn compounds.
Answer with one of the outcomes given here: class 1 (active), class 0 (inactive)

Use these answered entries as a reference point.
Compound: COc1ccc(/C=C(\C#N)C(=O)NCCCn2ccnc2)cc1
Class label: class 0
--
Compound: CC(=O)N(CC(O)CO)c1c(I)c(C(=O)NCC(O)CO)c(I)c(C(=O)NCC(O)CO)c1I (stereo not drawn)
Class label: class 0
--
Compound: CCCc1ccc(-c2c(C)sc(NC(=O)c3ccnn3C)c2C#N)cc1
Class label: class 0
--
Compound: Cc1ccccc1CC1(CO)CCCN(Cc2ccc3c(c2)OCCO3)C1 (stereo not drawn)
Class label: class 0
--
Compound: O=c1[nH]c(=O)c2nc3ccccc3nc2[nH]1
Class label: class 0
--
Compound: CN(C)C(=O)c1coc2nc3ccccc3nc12
Class label: class 0
--
Compound: NC(=O)C(=O)N/N=C/c1ccc([N+](=O)[O-])o1
Class label: class 0
--
Compound: NC(=O)c1sc(-c2ccsc2)cc1N
Class label: class 0

Now look at this entry.
Recorded test outcome, item O=c1[nH]cnc2c1c(-c1ccccc1)cn2-c1ccc(F)cc1
class 0

* * *

- Study target: Guanine nucleotide-binding protein G(i) subunit alpha-1 (Homo sapiens) (UniProt P63096)
- Assay overview: qHTS Assay for Inhibitors of RGS12 GoLoco Motif Activity (Red Fluorophore); also: nearly all actives have a fitted effect of over 30% in size
- Assay setup: Gai1:RGS12 GoLoco peptide FP, rhodamine, 10 min; series mostly up to 61.6 µM
About 1,000 (0.43%) of roughly 230,000 compounds were called active. Calls follow the shape of the dose curve; as a rule, active = well fitted inhibition curve with a large enough effect (not every such curve was filed as active); inactive = no such curve, though single readings can be large or run the other way. This is one part of a sample in which actives are shown more often than they occur.
Field 'call' accepts active, inactive

Compound: COc1cc(C(=O)NCc2ccc3c(c2)cc(C)n3C)cc(OC)c1OC
Class label: inactive
--
Compound: Cc1nc(-c2ccccc2)sc1C(=O)/C=C/N(C)C
Class label: inactive
--
Compound: COC(=O)[C@@H]1CC2=CC(=O)CC[C@]2(C)[C@@]23O[C@@H]2C[C@@]2(C)[C@@H](CC[C@@]24CCC(=O)O4)[C@H]13
Class label: inactive
--
Compound: CC/C=C\C/C=C\C/C=C\C/C=C\C/C=C\C/C=C\CCC(=O)NC(C)C(=O)O (centres undefined)
Class label: inactive
--
Compound: O=C(CSc1nc2ccccc2s1)Nc1ccc(C(=O)O)cc1
Class label: inactive

Outcome? Nc1ccc2nc3c(=O)[nH]c(=S)[nH]c3nc2c1
active

Do the same for COc1ccc(C2C(C#N)=C(N)Oc3cc(N)ccc32)cc1OC (centres undefined) please
inactive

Next entry: COC(=O)c1sc(=S)n(-c2ccccc2)c1N
inactive

Please do the same for Cc1ccccc1CN1C[C@@H]2C[C@@H](c3ccc4nsnc4c3)N3CCC[C@@]23C1=O as well.
inactive

Please answer likewise for COc1ccc(-c2nc(CS(=O)CC(=O)NCc3cccnc3)c(C)o2)cc1OC (centres undefined)
inactive

How about this compound: COc1ccc(OCCC(=O)c2ccc(OC)cc2)cc1
inactive

And then Cc1cccc(N2C(=O)SC(SC(=Nc3ccccc3)Nc3ccccc3)C2=O)c1 (centres undefined) , what is it?
inactive

What do you get for CC(C)CCOc1ccc(C(=O)C[N+]2(C)CCOCC2)cc1 ?
active

Another compound to look at: CCCCCCCC[n+]1cccc(C(=O)N2c3c(nc(N)[nH]c3=O)NC(C)C2C)c1 (centres undefined)
active

What do you get for CCOC(=O)C1=C(C(=O)OCC)C(C(=O)OCC)N(S(=O)(=O)C(F)(F)F)c2ccccc21 (centres undefined) ?
inactive

Another compound: O=C1C=CC(=O)N1c1ccc(N2CCCCC2)cc1
active

Another: CCOc1ccc(C(O)Cn2c(=N)n(CCN3CCCCC3)c3ccccc32)cc1 (centres undefined)
inactive

Now this one: CC1(C)OC(=O)N2CCc3ccccc3C21C (centres undefined)
inactive

From: PubChem BioAssay AID880
